The measurements presented in this section are drawn from patent US9458137B2.

Tested on: abl kinase
Assay: abl kinase inhibition assay
Format: biochemical
Endpoint: % Inhibition @1 μM Abl (%)
Write it as a number; the unit % goes unstated.

Task: Give abl kinase % Inhibition @1 μM Abl for Cc1cc2c(F)c(Oc3nc(Nc4cc(C5CC5)[nH]n4)cc(N4CCOC(CN(C)C)C4)n3)ccc2[nH]1 (stereo not shown)
Output: 110

Task: Would you mind doing C/C=C/c1cc(Nc2cc(N3CCN(C)CC3)nc(Oc3ccc4[nH]c(C)cc4c3F)n2)n[nH]1 as well?
Output: 109

Task: What would you report for Cc1cc2c(F)c(Oc3nc(Nc4cc(C5CC5)[nH]n4)cc(N4CCNC(=O)C4)n3)ccc2[nH]1 ?
Output: 108

Task: Same question for C/C=C/c1cc(Nc2cc(N3CCNCC3)nc(Oc3cc(F)c4[nH]c(C)cc4c3F)n2)n[nH]1 please.
Output: 112

Task: Now consider C/C=C/c1cc(Nc2cc(N3CCN(C)CC3)nc(Oc3ccc4[nH]c(C)cc4c3Cl)n2)n[nH]1 and answer again.
Output: 113

Task: What would you report for Cc1cc2c(F)c(Oc3nc(Nc4cc(C5CC5)[nH]n4)cc(N4CCN(CC(F)(F)F)CC4)n3)ccc2[nH]1 ?
Output: 108

Task: Same again, this time with C/C=C/c1cc(Nc2cc(N3CCC(N(CC)CC)C3)nc(Oc3cc(F)c4[nH]c(C)cc4c3F)n2)n[nH]1 (stereo not shown)
Output: 111

###

Exercise: for every item that follows, state its recorded % Inhibition @1 μM Abl.
Test system: abl kinase
Assay: abl kinase inhibition assay
Format: biochemical
Return type: number; implicit unit %.

Task: Form: Entry = C/C=C/c1cc(Nc2cc(N3CCN(C)CC3)nc(Oc3cc(F)c4[nH]c(C)cc4c3F)n2)n[nH]1 | System = abl kinase | % Inhibition @1 μM Abl = ____
Output: 112

Task: Now the same for C/C=C/c1cc(Nc2cc(N3CCN(S(C)(=O)=O)CC3)nc(Oc3ccc4[nH]c(C)cc4c3F)n2)n[nH]1
Output: 110

Task: Another molecule: Cc1cc2c(F)c(Oc3nc(Nc4cc(C5CC5)[nH]n4)cc(N4CCN(S(C)(=O)=O)CC4)n3)ccc2[nH]1
Output: 108

Task: // repeat for C/C=C/c1cc(Nc2cc(N3CCC(OC)C3)nc(Oc3cc(F)c4[nH]c(C)cc4c3F)n2)n[nH]1 (stereo not shown) and report
Output: 111

Task: Next up: CC(=O)N1CCN(c2cc(Nc3cc(C4CC4)[nH]n3)nc(Oc3ccc4[nH]c(C)cc4c3F)n2)CC1
Output: 107

Task: Field entry: C/C=C/c1cc(Nc2cc(N3CCN(CCOC)CC3)nc(Oc3ccc4[nH]c(C)cc4c3F)n2)n[nH]1
Output: 108

Task: What do you have for C/C=C/c1cc(Nc2cc(N3CCN(CCF)CC3)nc(Oc3ccc4[nH]c(C)cc4c3F)n2)n[nH]1 ?
Output: 111

###

Test system: abl kinase
Experiment: abl kinase inhibition assay
Format: biochemical
Field: % Inhibition @1 μM Abl. Provide a value for each of the compounds that follow.
Kindly provide the numeric value in % only, without the unit symbol.

Task: # get_value(readout='% Inhibition @1 μM Abl', item= Cc1cc2c(F)c(Oc3nc(Nc4cc(C5CC5)[nH]n4)cc(N4CCNCC4)n3)ccc2[nH]1 [Example 11] )
Output: 111

Task: How about this compound: C/C=C/c1cc(Nc2cc(N3CCN(CCO)CC3)nc(Oc3cc(F)c4[nH]c(C)cc4c3F)n2)n[nH]1 [Example 88]
Output: 113

Task: And then Cc1cc2c(F)c(Oc3nc(Nc4cc(C5CC5)[nH]n4)cc(N4CCNC(CO)C4)n3)ccc2[nH]1 (stereo not shown) [Example 43] , what is it?
Output: 111

Task: # repeat for CCN1CCN(c2cc(Nc3cc(C)[nH]n3)nc(Oc3cc(F)c4[nH]c(C)cc4c3F)n2)CC1 [Example 103]
Output: 113

Task: Now consider C/C=C/c1cc(Nc2cc(N3CCN(S(C)(=O)=O)CC3)nc(Oc3cc(F)c4[nH]c(C)cc4c3F)n2)n[nH]1 [Example 98] and answer again.
Output: 111

Task: Record: Cc1cc2c(F)c(Oc3nc(Nc4cc(C5CC5)[nH]n4)cc(N4CCNCC4)n3)cc(F)c2[nH]1 [Example 82]
Output: 106

Task: Also COC1CCN(c2cc(Nc3cc(C4CC4)[nH]n3)nc(Oc3ccc4[nH]c(C)cc4c3F)n2)C1 (stereo not shown) [Example 16] , if possible.
Output: 103
